Test system: BDF1 mice, colon carcinoma 38 sc, T/C %
Procedure Summary: NCI In Vivo Anticancer Drug Screen. Data for tumor model Colon Carcinoma 38 (subcutaneous) in B6D2F1 (BDF1) mice
Condition Notes: endpoint: median tumor weight (est.); dose: 12.5 mg/kg/injection; schedule: Q07DX002 (ip); vehicle: saline; higher = larger tumour
Inconclusive results are not listed.
Measurement Name: T/C

Find the recorded T/C belonging to COc1cccc2c1C(CO)N1C(C#N)C3CC(C(=O)O)C(C1C2)N3C (configuration not stated) and report it.
45 % of control

Further, for C[N+](C)(C)c1ncnc2c1ncn2C1CCCO1 (configuration not stated) ?
110 % of control

Do the same for Nc1nncs1 please
71 % of control

Same again, this time with O=c1[nH]c(=O)c2nc(-c3cccnc3)cnc2[nH]1
116 % of control

Field entry: O=C1C=C(C2OC(CO)C(O)C2O)C(=O)N1 (configuration not stated)
113 % of control

What do you have for Nc1nc(/C=C(/O)c2ccccc2)c2ncn(C3OC(CO)C(O)C3O)c2n1 (configuration not stated) ?
120 % of control

Please answer likewise for C=CS(=O)(=O)c1ccccc1
97 % of control

====

Tested on: BDF1 mice, colon carcinoma 38 sc, T/C %
Procedure Summary: NCI In Vivo Anticancer Drug Screen. Data for tumor model Colon Carcinoma 38 (subcutaneous) in B6D2F1 (BDF1) mice
Condition Notes: endpoint: median tumor weight (est.); dose: 1.5 mg/kg/injection; schedule: Q07DX002 (ip); vehicle: saline; higher = larger tumour
Records with an inconclusive call do not appear.
Provide the reported T/C of each item.

For CC[C@@]1(O)C(=O)OCc2c1cc1n(c2=O)Cc2cc3cc(O)ccc3nc2-1 , what is its reported T/C?
92 % of control

Same lookup for COc1cc2c(c(OC)c1OC)-c1ccc(OC)c(=O)cc1[C@@H](NC(C)=O)CC2 , please.
87 % of control

Please do the same for CS(=O)(=O)CS(=O)(=O)OCCCl as well.
86 % of control

Param item: O=c1[nH]cnc2c1ccn2C1OC(CO)C(O)C1O (centres undefined)
88 % of control

====

Kindly supply the reported T/C values for the records listed here.
System: BDF1 mice, colon carcinoma 38 sc, T/C %
Procedure Summary: NCI In Vivo Anticancer Drug Screen. Data for tumor model Colon Carcinoma 38 (subcutaneous) in B6D2F1 (BDF1) mice
Condition Notes: endpoint: median tumor weight (est.); dose: 25.0 mg/kg/injection; schedule: Q07DX002 (ip); vehicle: suspension in saline; higher = larger tumour
Inconclusive results are not listed.

Requested read-out: T/C. Entry: O=C(/C=C(\Cl)C(=O)NO)NO
101 % of control

Same again, this time with CC1(C)COCN1COC1CCCCC1
84 % of control

Cool, now COC1C(OC(=O)/C=C/C=C/C=C/C=C/C(=O)O)CCC2(CO2)C1C1(C)OC1CC=C(C)C (stereo not given)
101 % of control

Field entry: Cc1c2c(ccc3ccccc32)c[n+]2ccccc12
91 % of control

Quick one: C[n+]1c(-c2cccc3ccccc23)c2cc(N)ccc2c2ccccc21
193 % of control

Next molecule up: O=C1OC(=O)[C@H]2[C@@H]1[C@H]1C=C[C@@H]2OC1=O
59 % of control

Also CN(C)[C@@H]1C(=O)C(C(N)=O)=C(O)[C@@]2(O)C(=O)C3=C(O)c4c(O)ccc(Cl)c4[C@@](C)(O)[C@H]3C[C@@H]12 , if possible.
82 % of control

Moving on to CCN(CC)CCC(=O)c1ccccc1
80 % of control

Okay, and c1cc(-c2cc3ccc(C4=NCCN4)cc3[nH]2)ccc1C1=NCCN1 ?
105 % of control

And for O=C1NC(O)c2ccccc2O1 (stereo not given) ?
64 % of control

====

System: BDF1 mice, colon carcinoma 38 sc, T/C %
Procedure Summary: NCI In Vivo Anticancer Drug Screen. Data for tumor model Colon Carcinoma 38 (subcutaneous) in B6D2F1 (BDF1) mice
Condition Notes: endpoint: median tumor weight (est.); dose: 200.0 mg/kg/injection; schedule: Q07DX002 (ip); vehicle: saline; higher = larger tumour
Results filed as inconclusive are left out.
Answer each item with its documented T/C.

Under BDF1 mice, colon carcinoma 38 sc, T/C %: T/C value of COc1cccc2c1C(=O)c1c(O)c3c(c(O)c1C2=O)CC(O)(C(=O)CO)CC3OC1CC(N)C(O)C(C)O1 (centres undefined) ?
19 % of control

Proceed to Cc1cc(SCC(=O)c2ccc(Br)cc2)cc(C)[o+]1
100 % of control

Here is the next compound: CC1=C(C)C(=O)O[C@@H]([C@](C)(O)[C@]2(O)CC[C@@]3(O)[C@@H]4C[C@H]5O[C@]56CC=CC(=O)[C@]6(C)[C@H]4CC[C@]23C)C1
83 % of control

Please do the same for O=C1C(O)=C(c2ccccc2)C(=O)C(O)=C1c1ccccc1 as well.
102 % of control

====

System: BDF1 mice, colon carcinoma 38 sc, T/C %
Procedure Summary: NCI In Vivo Anticancer Drug Screen. Data for tumor model Colon Carcinoma 38 (subcutaneous) in B6D2F1 (BDF1) mice
Condition Notes: endpoint: median tumor weight (est.); dose: 200.0 mg/kg/injection; schedule: Q07DX002 (ip); vehicle: sodium bicarbonate; higher = larger tumour
Results filed as inconclusive are left out.
Measurement Name: T/C

Dear colleague, I am looking for the recorded T/C of the following compound: Cc1cc2c(=O)cc(-c3ccccc3Cl)oc2c(C(=O)O)c1C
35 % of control

Cc1cc2c(=O)c3ccccc3oc2c(C(=O)O)c1C , same question.
37 % of control

What do you have for O=C(O)Cc1cccc2c(=O)cc(-c3ccccc3)oc12 ?
42 % of control

Lookup C#CCN(Cc1ccc2nc(N)[nH]c(=O)c2c1)c1ccc(C(=O)NC(CCC(=O)O)C(=O)O)cc1 (centres undefined)
49 % of control

====

System: BDF1 mice, colon carcinoma 38 sc, T/C %
Procedure Summary: NCI In Vivo Anticancer Drug Screen. Data for tumor model Colon Carcinoma 38 (subcutaneous) in B6D2F1 (BDF1) mice
Condition Notes: endpoint: median tumor weight (est.); dose: 200.0 mg/kg/injection; schedule: Q07DX003 (ip); vehicle: saline; higher = larger tumour
Records with an inconclusive call do not appear.
Measurement Name: T/C

Name the recorded T/C for CNNCc1ccc(C(=O)NC(C)C)cc1 .
99 % of control

Repeat for the following molecule: ClCC[N+]12CC[N+](CCCl)(CC1)C2
70 % of control

Please do the same for N=C(N)Sc1ccccn1 as well.
81 % of control

Also OC(CCl)CN1CC[N+]2(CC1)CC[N+]1(CCN(CC(O)CCl)CC1)CC2 (configuration not stated) , if possible.
54 % of control

Repeat with C[C@@H](CN1CC(=O)NC(=O)C1)N1CC(=O)NC(=O)C1
71 % of control

Likewise for N=C(N)Sc1cc(O)ccc1O ?
55 % of control

How about c1cc2n(n1)CCN2 ?
66 % of control

====

Consider the following molecules; for each one, report its T/C.
Tested on: BDF1 mice, colon carcinoma 38 sc, T/C %
Procedure Summary: NCI In Vivo Anticancer Drug Screen. Data for tumor model Colon Carcinoma 38 (subcutaneous) in B6D2F1 (BDF1) mice
Condition Notes: endpoint: median tumor weight (est.); dose: 25.0 mg/kg/injection; schedule: Q07DX002 (ip); vehicle: saline; higher = larger tumour
Procedure: The antitumor activity of compounds was measured in mice bearing transplantable tumors. Survival or tumor size were measured and the results are expressed as the measurement made in the treated group (T) divided by the measurement made in the vehicle treated control group (C). The tumor model used in this assay is Colon Carcinoma 38 (subcutaneous) in B6D2F1 (BDF1) mice
Inconclusive results are not listed.

Reported T/C, molecule CN1CCN(CCCN2c3ccccc3Sc3ccc(C(F)(F)F)cc32)CC1 : ____
97 % of control

Similarly, Cc1cn(C2CC3[O][Sn]([c]4ccccc4)([c]4ccccc4)[O]CC3O2)c(=O)[nH]c1=O (stereo not drawn) ?
100 % of control

Now consider OC(CCl)CN1CC[N+]2(CC1)CC[N+]1(CCN(CC(O)CCl)CC1)CC2 (stereo not drawn) and answer again.
124 % of control

Another molecule: OCCN1CCN(CC/C=C2/c3ccccc3Sc3ccc(Cl)cc32)CC1
67 % of control

Please answer likewise for CC[As](=O)(O)CC
110 % of control

Also COC(=O)CC(N)C(=O)O (stereo not drawn) , if possible.
95 % of control

For COC(=O)c1ccoc1 then?
105 % of control

Try CCC(C(=O)O)C(=O)O.[NH-]CC1CCCC[N-]1.[Pt+2] next.
305 % of control

Another molecule: CC1(C)OC(=O)N(CO)C1=O
94 % of control

Okay, and c1cc[c]([Sn]([NH]c2ncnc3[nH]cnc23)([NH]c2ncnc3[nH]cnc23)[c]2ccccc2)cc1 ?
51 % of control

Now consider OCCCN1CCCCC1CO (stereo not drawn) .
91 % of control

Please give the result for CC[N](CC)[Ge]([CH2]C)[CH2]C.CC[N](CC)[Ge]([CH2]C)[CH2]C too.
79 % of control

Next up: OCCN1CCN(CCCN2c3ccccc3Sc3ccc(C(F)(F)F)cc32)CC1
67 % of control

# repeat for CC1=CC(=NN=c2cc(C)n([O-])c(C)c2)C=C(C)[N+]1=O
108 % of control

And then Brc1c(NC2=NCCN2)ccc2nccnc12 , what is it?
82 % of control

Then this molecule: O=C1C=C(C2OC(CO)C(O)C2O)C(=O)N1 (stereo not drawn)
83 % of control

Next up: O=c1n(CC2CO2)c(=O)n(CC2CO2)n1CC1CO1 (stereo not drawn)
25 % of control

Please give the result for N=c1ccn2c(n1)OC1C(O)C(CO)OC12 (stereo not drawn) too.
84 % of control
